Where do these numbers come from? They come from PubChem BioAssay AID1159580.

experiment: chemical genetic growth profiling, strain panel (AID 1159580);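 further: tested at 20 µM; growth read once vehicle control cultures reached saturation at 30 °C; lower values mean less growth of the strain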; settings: S. cerevisiae deletion strains, growth OD, locus YGR252W, strain gcn5
Hit rate of the full screen: of about 5,500 compounds, about 2,000 (36%) were called active. Not shown: some 18% with an inconclusive outcome. No stated cut-off is given here; in the data, active means normalized growth mostly below about 0.91 (no sharp cut-off); inconclusive means no clear call, values can overlap the other calls; inactive means mostly above about 0.92. The list shows a part of the results.
# output must be one of active, inactive

• COc1cc2c(cc1OC)[C@@H]1C(=O)c3ccc4oc(C(C)C)cc4c3O[C@@H]1CO2 = inactive

Alright, here's another compound for you.
Asked: Just curious, what result did CC(C)(O)[C@@H]1[C@H]2OC(=O)[C@@H]1[C@]1(O)C[C@H]3O[C@]34C(=O)O[C@H]2[C@]14C get here?
Given back: inactive
